Target: Cannabinoid receptor 2 (Homo sapiens)
Assay: Binding affinity to human CB2 receptor assessed as inhibition constant
Measure: pKi
Please keep in mind that pKi is minus log10 of the molar concentration; only the number is needed.

Query: Query pKi for CCCCCCCc1cc(O)c2c(c1)OC(C)(C)[C@@H]1CCC(C)=C[C@@H]21
Reply: 8.16

---

Molecular target: G-protein coupled receptor 55 (Homo sapiens, UniProt Q9Y2T6)
Sequence (Q9Y2T6 whole entry): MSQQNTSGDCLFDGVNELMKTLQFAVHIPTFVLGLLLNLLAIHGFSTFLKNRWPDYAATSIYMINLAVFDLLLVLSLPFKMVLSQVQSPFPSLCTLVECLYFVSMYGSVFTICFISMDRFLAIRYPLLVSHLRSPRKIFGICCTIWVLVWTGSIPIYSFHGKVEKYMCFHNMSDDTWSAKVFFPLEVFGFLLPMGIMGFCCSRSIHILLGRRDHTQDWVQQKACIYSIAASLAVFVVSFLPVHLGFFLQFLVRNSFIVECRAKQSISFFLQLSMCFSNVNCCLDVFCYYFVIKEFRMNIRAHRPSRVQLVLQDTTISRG
Assay: Antagonist activity at GPR55 (unknown origin) expressed in HEK293 cells assessed as LPI-stimulated ERK1/2 phosphorylation
Type: functional, cell-based
Measure: pEC50
Please keep in mind that pEC50 is minus log10 of the molar concentration; only the number is needed.

Query: Query pEC50 for CCCc1cc(O)c2c(c1)OC(C)(C)[C@@H]1CCC(C)=C[C@@H]21 [TETRAHYDROCANNABIVARIN]
Reply: 6.06

---

Molecular target: Cytochrome P450 2C19 (Homo sapiens, UniProt P33261)
Sequence (P33261 whole entry): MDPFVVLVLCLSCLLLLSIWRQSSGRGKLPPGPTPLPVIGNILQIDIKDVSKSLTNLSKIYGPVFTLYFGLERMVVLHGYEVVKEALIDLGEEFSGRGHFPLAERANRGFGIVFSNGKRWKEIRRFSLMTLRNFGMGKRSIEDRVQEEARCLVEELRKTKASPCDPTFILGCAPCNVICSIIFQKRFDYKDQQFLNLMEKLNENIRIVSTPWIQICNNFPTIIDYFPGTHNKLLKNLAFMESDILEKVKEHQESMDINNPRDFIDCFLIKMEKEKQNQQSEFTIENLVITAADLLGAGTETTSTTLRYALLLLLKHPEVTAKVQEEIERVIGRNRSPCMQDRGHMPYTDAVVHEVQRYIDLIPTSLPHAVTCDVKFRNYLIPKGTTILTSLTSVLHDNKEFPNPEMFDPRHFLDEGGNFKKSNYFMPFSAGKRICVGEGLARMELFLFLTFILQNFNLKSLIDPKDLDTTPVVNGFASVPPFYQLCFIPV
Measure: IC50

Query: Query IC50 for C=C(C)[C@@H]1CCC(C)=C[C@H]1c1c(O)cc(CCC)cc1O [CANNABIDIVARIN]
Reply: 3.7 µM

---

Molecular target: Cytochrome P450 2A6 (Homo sapiens, UniProt P11509)
Sequence (P11509 whole entry): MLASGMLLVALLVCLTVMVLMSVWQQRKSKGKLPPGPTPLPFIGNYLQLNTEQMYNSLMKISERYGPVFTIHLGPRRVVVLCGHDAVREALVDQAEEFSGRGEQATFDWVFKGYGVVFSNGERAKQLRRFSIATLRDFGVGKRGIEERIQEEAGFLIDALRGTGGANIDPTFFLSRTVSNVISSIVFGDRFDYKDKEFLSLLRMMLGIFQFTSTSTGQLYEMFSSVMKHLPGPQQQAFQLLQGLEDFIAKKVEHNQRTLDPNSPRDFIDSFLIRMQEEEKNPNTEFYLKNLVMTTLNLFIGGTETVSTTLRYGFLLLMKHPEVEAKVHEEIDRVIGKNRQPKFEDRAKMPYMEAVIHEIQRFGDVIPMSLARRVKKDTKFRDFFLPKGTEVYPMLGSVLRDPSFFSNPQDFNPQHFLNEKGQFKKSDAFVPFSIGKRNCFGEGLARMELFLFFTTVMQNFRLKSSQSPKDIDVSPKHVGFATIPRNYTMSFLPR
Test: Non competitive inhibition of recombinant human CYP2A6 using coumarin as substrate preincubated with NADPH for 20 mins and measured after 30 min
Measure: pIC50
Please keep in mind that pIC50 is minus log10 of the molar concentration; only the number is needed.

Query: Query pIC50 for CCCCCc1cc(O)c2c(c1)OC(C)(C)c1ccc(C)cc1-2
Reply: 4.52

---

Molecular target: Cannabinoid receptor 1 (Homo sapiens, UniProt P21554)
Sequence (P21554 whole entry): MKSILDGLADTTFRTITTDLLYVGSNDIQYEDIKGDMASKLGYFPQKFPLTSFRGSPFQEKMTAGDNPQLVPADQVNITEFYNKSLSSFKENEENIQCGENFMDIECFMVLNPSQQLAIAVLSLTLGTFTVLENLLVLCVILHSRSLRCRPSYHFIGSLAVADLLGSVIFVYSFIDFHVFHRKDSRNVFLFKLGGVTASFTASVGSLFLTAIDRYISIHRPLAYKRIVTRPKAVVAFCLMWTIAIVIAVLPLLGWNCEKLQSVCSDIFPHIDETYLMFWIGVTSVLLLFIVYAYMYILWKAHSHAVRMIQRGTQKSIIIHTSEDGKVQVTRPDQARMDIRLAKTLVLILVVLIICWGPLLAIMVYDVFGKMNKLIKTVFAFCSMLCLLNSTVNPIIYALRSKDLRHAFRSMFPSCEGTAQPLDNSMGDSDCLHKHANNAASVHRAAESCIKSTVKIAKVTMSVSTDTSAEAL
Experiment: Displacement of [35S]GTPgammaS from human CB1 receptor expressed in CHO cells
Format: cell-based
Measure: Ki (µM)
Use µM as the unit, but write only the number.

Query: Query Ki for CCCCCc1cc(O)c(C/C=C(\C)CCC=C(C)C)c(O)c1
Reply: 2.6

---

Target: Cytochrome P450 2J2 (Homo sapiens, UniProt P51589)
Sequence (P51589 whole entry): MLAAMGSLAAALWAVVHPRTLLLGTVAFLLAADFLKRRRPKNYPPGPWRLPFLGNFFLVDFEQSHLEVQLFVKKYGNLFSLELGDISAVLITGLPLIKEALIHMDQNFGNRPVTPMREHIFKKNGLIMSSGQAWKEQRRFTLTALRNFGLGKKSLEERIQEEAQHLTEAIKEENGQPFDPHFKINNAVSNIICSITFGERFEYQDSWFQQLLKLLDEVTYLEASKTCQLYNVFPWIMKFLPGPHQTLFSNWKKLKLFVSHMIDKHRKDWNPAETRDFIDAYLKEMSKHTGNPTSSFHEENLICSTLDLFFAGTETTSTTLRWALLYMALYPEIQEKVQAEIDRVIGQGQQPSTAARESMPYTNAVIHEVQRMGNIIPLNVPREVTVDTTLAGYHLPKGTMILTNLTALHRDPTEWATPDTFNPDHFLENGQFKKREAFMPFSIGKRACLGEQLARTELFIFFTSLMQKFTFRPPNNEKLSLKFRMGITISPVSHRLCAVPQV
Assay: Non competitive inhibition of CYP2J2 (unknown origin) in presence of NADPH by LC-MS/MS analysis
Format: ADME
Measure: IC50
Answer as a quantity: numeral, then unit.

Query: Query IC50 for CCCCCc1cc(O)c2c(c1)OC(C)(C)c1ccc(C)cc1-2
Reply: 19 µM

---

Target: Cannabinoid receptor 1 (Homo sapiens, UniProt P21554)
Assay: Binding affinity to CB1 (unknown origin) assessed as inhibition constant
Measure: Ki (nM)
Use nM as the unit, but write only the number.

Query: Query Ki for CCCCCc1cc(O)c2c(c1)OC(C)(C)c1ccc(C)cc1-2
Reply: 1100

---

Target: 5-hydroxytryptamine receptor 1A (Homo sapiens)
Sequence (P08908 whole entry): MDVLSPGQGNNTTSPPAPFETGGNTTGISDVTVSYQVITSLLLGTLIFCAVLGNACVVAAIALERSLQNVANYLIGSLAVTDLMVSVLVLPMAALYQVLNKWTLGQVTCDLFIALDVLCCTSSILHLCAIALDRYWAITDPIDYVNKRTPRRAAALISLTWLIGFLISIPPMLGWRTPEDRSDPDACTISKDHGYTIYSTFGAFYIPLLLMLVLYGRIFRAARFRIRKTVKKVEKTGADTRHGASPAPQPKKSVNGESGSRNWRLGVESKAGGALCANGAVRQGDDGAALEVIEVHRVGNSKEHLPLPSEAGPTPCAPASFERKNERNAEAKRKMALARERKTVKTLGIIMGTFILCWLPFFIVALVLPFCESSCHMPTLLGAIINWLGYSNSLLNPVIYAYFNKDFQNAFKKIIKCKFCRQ
Test: Displacement of [35S]GTPgammaS from 5HT1A in […] incubated for 60 mins by radioligand binding assay
Measure: pEC50
Please keep in mind that pEC50 is minus log10 of the molar concentration; only the number is needed.

Query: Quote 5-hydroxytryptamine receptor 1A (Homo sapiens) pEC50 for entry CCCc1cc(O)c2c(c1)OC(C)(C)[C@@H]1CCC(C)=C[C@@H]21 [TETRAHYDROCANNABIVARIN] .
Reply: 7.55

---

Biological target: Cytochrome P450 1A1 (Homo sapiens, UniProt P04798)
Sequence (P04798 whole entry): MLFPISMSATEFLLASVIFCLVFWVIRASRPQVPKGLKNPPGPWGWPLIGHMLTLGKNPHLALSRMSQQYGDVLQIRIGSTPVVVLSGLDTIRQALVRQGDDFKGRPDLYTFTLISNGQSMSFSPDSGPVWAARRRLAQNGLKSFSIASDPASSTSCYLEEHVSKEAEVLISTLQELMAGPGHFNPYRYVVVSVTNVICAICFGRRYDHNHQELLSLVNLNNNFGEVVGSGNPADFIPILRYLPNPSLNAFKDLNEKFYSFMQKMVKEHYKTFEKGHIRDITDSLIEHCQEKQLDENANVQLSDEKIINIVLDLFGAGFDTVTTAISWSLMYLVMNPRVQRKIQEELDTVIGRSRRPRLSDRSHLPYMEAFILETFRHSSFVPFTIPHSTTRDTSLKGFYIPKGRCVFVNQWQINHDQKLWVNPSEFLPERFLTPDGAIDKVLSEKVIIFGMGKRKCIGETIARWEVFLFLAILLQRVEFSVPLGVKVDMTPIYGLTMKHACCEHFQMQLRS
Test: Inhibition of human recombinant CYP1A1 preincubated with NADPH for 20 mins and measured after 30 min by Lineweaver-burk plots analysis
Measure: Ki

Query: Quote Cytochrome P450 1A1 (Homo sapiens, UniProt P04798) Ki for entry C=C(C)[C@@H]1CCC(C)=C[C@H]1c1c(O)cc(CCC)cc1O [CANNABIDIVARIN] .
Reply: 1600 nM

---

Biological target: Cannabinoid receptor 2 (Homo sapiens, UniProt P34972)
Sequence (P34972 whole entry): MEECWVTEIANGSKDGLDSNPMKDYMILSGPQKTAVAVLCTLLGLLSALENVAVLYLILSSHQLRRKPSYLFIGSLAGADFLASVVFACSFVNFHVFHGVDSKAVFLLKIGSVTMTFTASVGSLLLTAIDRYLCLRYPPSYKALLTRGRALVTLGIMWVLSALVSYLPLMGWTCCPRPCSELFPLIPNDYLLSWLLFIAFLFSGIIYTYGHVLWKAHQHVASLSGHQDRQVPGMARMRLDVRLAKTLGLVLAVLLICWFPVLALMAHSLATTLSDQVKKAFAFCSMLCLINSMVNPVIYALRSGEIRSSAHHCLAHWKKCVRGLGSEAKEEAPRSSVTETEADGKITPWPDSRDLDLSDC
Assay: Binding affinity to CB2 receptor (unknown origin) expressed in CHO -k1 cells assessed as inhibition constant
Type: cell-based
Measure: Ki (nM)
Use nM as the unit, but write only the number.

Query: Query Ki for CCCCCc1cc(O)c2c(c1)OC(C)(C)c1ccc(C)cc1-2
Reply: 70

---

Biological target: Cytochrome P450 2A6 (Homo sapiens, UniProt P11509)
Test: Non competitive inhibition of recombinant human CYP2A6 using coumarin as substrate preincubated with NADPH for 20 mins and measured after 30 min by Lineweaver-burk plots analysis
Measure: Ki
Answer as a quantity: numeral, then unit.

Query: Quote Cytochrome P450 2A6 (Homo sapiens, UniProt P11509) Ki for entry CCCCCc1cc(O)c2c(c1)OC(C)(C)c1ccc(C)cc1-2 [CANNABINOL] .
Reply: 1000 nM

---

Target: G-protein coupled receptor 55 (Homo sapiens)
Assay: Binding affinity to human GPR55 expressed in HEK293 cells assessed as LPI-stimulated ERK1/2 phosphorylation
Type: cell-based
Measure: EC50 (µM)
Use µM as the unit, but write only the number.

Query: Query EC50 for C=C(C)[C@@H]1CCC(C)=C[C@H]1c1c(O)cc(CCC)cc1O [CANNABIDIVARIN]
Reply: 0.4

---

Target: Transient receptor potential cation channel subfamily V member 1 (Homo sapiens)
Experiment: Agonist activity at TRPV1 (unknown origin) ion channel
Measure: pEC50
Please keep in mind that pEC50 is minus log10 of the molar concentration; only the number is needed.

Query: Query pEC50 for CCCc1cc(O)c2c(c1)OC(C)(C)[C@@H]1CCC(C)=C[C@@H]21 [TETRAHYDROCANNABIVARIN]
Reply: 6.70

---

Consider the following compounds and their measured Efficacy readings.
Biological target: Transient receptor potential cation channel subfamily V member 4 (Homo sapiens)
Sequence (Q9HBA0 whole entry): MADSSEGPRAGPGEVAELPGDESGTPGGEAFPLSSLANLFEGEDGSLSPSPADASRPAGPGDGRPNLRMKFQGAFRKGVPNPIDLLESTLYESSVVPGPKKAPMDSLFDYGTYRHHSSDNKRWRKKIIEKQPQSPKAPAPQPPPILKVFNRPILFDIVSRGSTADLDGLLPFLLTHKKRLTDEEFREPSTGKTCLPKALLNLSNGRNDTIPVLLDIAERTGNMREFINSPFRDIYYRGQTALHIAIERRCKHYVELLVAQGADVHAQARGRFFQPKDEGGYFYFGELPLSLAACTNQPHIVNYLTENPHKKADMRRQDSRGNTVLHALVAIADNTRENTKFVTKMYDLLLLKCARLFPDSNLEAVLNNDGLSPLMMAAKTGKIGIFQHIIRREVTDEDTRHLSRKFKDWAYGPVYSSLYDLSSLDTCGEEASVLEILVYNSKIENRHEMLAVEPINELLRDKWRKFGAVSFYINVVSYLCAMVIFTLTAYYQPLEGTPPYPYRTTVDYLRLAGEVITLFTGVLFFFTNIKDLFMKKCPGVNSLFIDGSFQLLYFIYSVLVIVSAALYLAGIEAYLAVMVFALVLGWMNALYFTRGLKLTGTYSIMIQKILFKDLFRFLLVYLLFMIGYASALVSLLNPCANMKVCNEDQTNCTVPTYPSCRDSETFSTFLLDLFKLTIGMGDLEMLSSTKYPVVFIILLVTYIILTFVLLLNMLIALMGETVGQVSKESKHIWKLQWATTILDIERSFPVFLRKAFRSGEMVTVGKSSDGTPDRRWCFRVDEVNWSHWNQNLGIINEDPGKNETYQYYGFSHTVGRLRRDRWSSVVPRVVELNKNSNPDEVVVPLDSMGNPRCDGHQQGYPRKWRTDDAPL
Assay: Agonist activity at ionomycin-stimulated TRPV4 (unknown origin) activation assessed as efficacy relative to control
Use % as the unit, but write only the number.

Some solved cases for reference:
- Compound: "CCCCCc1cc(O)c(C/C=C(\\C)CCC=C(C)C)c(O)c1"
  Efficacy [%]: 24
- Compound: "C=C(C)[C@@H]1CCC(C)=C[C@H]1c1c(O)cc(CCC)cc1O"
  Efficacy [%]: 30
- Compound: "CCCc1cc(O)c2c(c1)OC(C)(C)c1ccc(C)cc1-2"
  Efficacy [%]: 37

Query: Query Efficacy for CCCCCc1cc(O)c2c(c1)OC(C)(CCC=C(C)C)C=C2 (centres undefined)
Reply: 23

---

Molecular target: Cannabinoid receptor 2 (Homo sapiens, UniProt P34972)
Test: Agonist activity at CB2 receptor (unknown origin) expressed in CHO cell membranes assessed as increase in [35S]GTPgammaS binding incubated for 60 mins by liquid scintillation spectrometry analysis
Type: functional, Membrane
Measure: EC50 (nM)
Use nM as the unit, but write only the number.

Query: Query EC50 for CCCc1cc(O)c2c(c1)OC(C)(C)[C@@H]1CCC(C)=C[C@@H]21 [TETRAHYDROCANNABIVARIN]
Reply: 98

---

Consider the following compounds and their measured IC50 readings.
Target: Transient receptor potential cation channel subfamily V member 3 (Homo sapiens)
Sequence (Q8NET8 whole entry): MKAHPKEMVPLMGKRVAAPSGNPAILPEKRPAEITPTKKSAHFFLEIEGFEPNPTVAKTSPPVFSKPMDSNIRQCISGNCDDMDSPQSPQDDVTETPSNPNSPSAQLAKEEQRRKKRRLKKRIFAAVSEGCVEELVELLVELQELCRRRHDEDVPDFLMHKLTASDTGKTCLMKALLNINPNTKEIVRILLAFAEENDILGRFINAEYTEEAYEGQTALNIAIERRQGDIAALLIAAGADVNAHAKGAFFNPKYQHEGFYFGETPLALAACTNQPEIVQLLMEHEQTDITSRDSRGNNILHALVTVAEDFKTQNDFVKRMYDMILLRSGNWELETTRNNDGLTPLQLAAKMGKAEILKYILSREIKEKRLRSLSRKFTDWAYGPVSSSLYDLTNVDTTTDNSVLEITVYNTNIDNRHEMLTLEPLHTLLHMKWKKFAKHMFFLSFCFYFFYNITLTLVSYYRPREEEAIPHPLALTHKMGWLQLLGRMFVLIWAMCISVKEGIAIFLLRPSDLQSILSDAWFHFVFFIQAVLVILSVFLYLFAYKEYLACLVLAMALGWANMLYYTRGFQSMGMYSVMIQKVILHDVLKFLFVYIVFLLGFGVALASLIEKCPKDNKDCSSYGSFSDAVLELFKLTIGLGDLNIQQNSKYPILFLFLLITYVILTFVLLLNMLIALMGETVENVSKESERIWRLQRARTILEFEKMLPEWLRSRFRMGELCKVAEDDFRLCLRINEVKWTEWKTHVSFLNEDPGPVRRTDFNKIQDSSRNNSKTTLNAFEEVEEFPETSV
Experiment: Agonist activity at ionomycin-stimulated TRPV3 (unknown origin) channel desensitization in presence of carvacrol
Use µM as the unit, but write only the number.

- Compound: "CCCCCc1cc(O)c(C/C=C(\\C)CCC=C(C)C)c(O)c1"
  IC50, µM: 66

Query: Quote Transient receptor potential cation channel subfamily V member 3 (Homo sapiens) IC50 for entry CCCc1cc(O)c2c(c1)OC(C)(C)[C@@H]1CCC(C)=C[C@@H]21 [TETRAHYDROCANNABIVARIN] .
Reply: 3

Query: Quote Transient receptor potential cation channel subfamily V member 3 (Homo sapiens) IC50 for entry CCCCCc1cc(O)c2c(c1)OC(C)(C)c1ccc(C)cc1-2 .
Reply: 9.4

Query: Quote Transient receptor potential cation channel subfamily V member 3 (Homo sapiens) IC50 for entry CCCc1cc(O)c2c(c1)OC(C)(C)c1ccc(C)cc1-2 .
Reply: 1.6

Query: Quote Transient receptor potential cation channel subfamily V member 3 (Homo sapiens) IC50 for entry CCCCCc1cc(O)c2c(c1)OC(C)(CCC=C(C)C)C=C2 (stereo unspecified) .
Reply: 201

Query: Quote Transient receptor potential cation channel subfamily V member 3 (Homo sapiens) IC50 for entry C=C(C)[C@@H]1CCC(C)=C[C@H]1c1c(O)cc(CCC)cc1O .
Reply: 25
